Sourced from ChEMBL document CHEMBL1137492

# tested-target: Adenosine receptor A2a (Rattus norvegicus, UniProt P30543)
# Sequence (P30543 whole entry): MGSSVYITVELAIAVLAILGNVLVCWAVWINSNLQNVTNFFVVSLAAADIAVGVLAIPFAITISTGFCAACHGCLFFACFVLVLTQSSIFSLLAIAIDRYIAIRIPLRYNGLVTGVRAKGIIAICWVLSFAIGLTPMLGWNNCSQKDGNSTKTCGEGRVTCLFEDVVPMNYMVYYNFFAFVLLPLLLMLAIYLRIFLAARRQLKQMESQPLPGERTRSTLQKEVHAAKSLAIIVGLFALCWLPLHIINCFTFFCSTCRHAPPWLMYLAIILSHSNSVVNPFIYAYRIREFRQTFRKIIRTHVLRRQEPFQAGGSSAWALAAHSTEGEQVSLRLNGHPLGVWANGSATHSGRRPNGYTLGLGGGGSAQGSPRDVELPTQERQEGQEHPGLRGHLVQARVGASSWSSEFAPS
measured-quantity: pKi
Numbers only, as −log10 of the molar value.

Some solved cases for reference:
>>> observed_measurement("CC(=O)OC(CN1CCCn2c1nc1c2c(=O)n(C)c(=O)n1C)c1ccccc1 (configuration not stated)")
6.00
>>> observed_measurement("CCCn1c(=O)c2c(nc3n2CCCN3CCc2ccc(OC)c(OC)c2)n(CCC)c1=O")
5.88
>>> observed_measurement("COc1ccc(CCN2CCCn3c2nc2c3c(=O)n(C)c(=O)n2C)cc1OC")
5.92

State recorded pKi for all listed molecules.
1. CCCn1c(=O)c2c(nc3n2CCCN3CCc2ccccc2)n(CCC)c1=O
2. Cn1c(=O)c2c(nc3n2CCCN3CCCc2ccccc2)n(C)c1=O
3. CCCn1c(=O)c2c(nc3n2CCCN3CCc2c[nH]c3ccccc23)n(CCC)c1=O
4. Cn1c(=O)c2c(nc3n2CCCN3CC(O)c2ccccc2)n(C)c1=O (configuration not stated)

Result:
1. 6.07
2. 5.96
3. 6.05
4. 5.95
